// data source = paper PMC6944458

Assay: in vitro
Conditions: human, Caco-2
measuredEndpoint: Papp B→A at 2 h
Please append the unit to your numeric answer.

Qu. Reported Papp B→A at 2 h for Cc1cn2c(C(=O)NCc3ccc(N4CCN(c5ccc(C(F)(F)F)cn5)CC4)c(F)c3)c(C)nc2s1 : what is it?
Ans. 0.758 ×10⁻⁶ cm/s

====

Test: in vitro
Format: in vitro ADME
Conditions: human, s9; NADPH, 37°C; read-out: Human liver S9 Microsomes T ½
measuredEndpoint: half-life (min)
Answers are plain numbers, in min.

Qu. Reported half-life for Cc1cn2c(C(=O)NCc3ccc(N4CCN(c5ccc(C(F)(F)F)cn5)CC4)c(F)c3)c(C)nc2s1 : what is it?
Ans. 28.4

====

Tested on: CYP2B6, CYP2C8, CYP2C9, CYP2C19, CYP2D6, CYP3A4
Experiment: in vitro
Assay type: in vitro ADME
Settings: human; range over isoforms, >10 to >20; read-out: IC50 against all the major cytochrome P450 isoforms
pIC50: −log10 of the molar value.
measuredEndpoint: pIC50

Qu. Reported pIC50 for Cc1cn2c(C(=O)NCc3ccc(N4CCN(c5ccc(C(F)(F)F)cn5)CC4)c(F)c3)c(C)nc2s1 [ND-11543] : what is it?
Ans. < 5.00

====

Test system: M. tuberculosis GC1237 (Mtb-GFP) in Raw 264.7 macrophages
Assay: Intracellular mycobacterial replication assay in macrophages
Type: cell-based
Conditions: Mycobacterium tuberculosis, 120 h, 5 days, read-out: MIC, intracellular M. tuberculosis growth in macrophages
measuredEndpoint: MIC

// below: answered molecules
molecule	measurementTarget	MIC
CCc1nc2sc(C)cn2c1C(=O)NCc1ccc2c(c1)CCO2 [ND-11503]	M. tuberculosis GC1237 (Mtb-GFP) in Raw 264.7 macrophages	1.25 to 2.5 µM
Cc1cn2c(C(=O)NCc3ccc4c(c3)CCO4)c(C)nc2s1 [ND-11459]	M. tuberculosis GC1237 (Mtb-GFP) in Raw 264.7 macrophages	1.25 to 2.5 µM
CCc1nc2ccc(Cl)cn2c1C(=O)NCc1ccc(N2CCC(c3ccc(OC(F)(F)F)cc3)CC2)cc1 [Q203]	M. tuberculosis GC1237 (Mtb-GFP) in Raw 264.7 macrophages	0.0078 µM
C[C@H]1COC2(CCN(c3nc(=O)c4cc(C(F)(F)F)cc([N+](=O)[O-])c4s3)CC2)O1 [BTZ043, reference compound]	M. tuberculosis GC1237 (Mtb-GFP) in Raw 264.7 macrophages	0.0078 µM
Cc1cn2c(C(=O)NCc3ccc(N4CCN(c5ccc(C(F)(F)F)cn5)CC4)c(F)c3)c(C)nc2s1 [ND-11543]	M. tuberculosis GC1237 (Mtb-GFP) in Raw 264.7 macrophages	0.0625 µM

With those in mind, consider the next molecule.
Qu. Lab note: need MIC with M. tuberculosis GC1237 (Mtb-GFP) in Raw 264.7 macrophages for entry Cc1cn2c(C(=O)NCc3ccc(Oc4cccc(C(F)(F)F)c4)cc3)c(C)nc2s1 [ND-11564] , please look it up.
Ans. 0.25 µM

====

Experiment: in vitro
Conditions: human, Caco-2
measuredEndpoint: efflux ratio
Answers are plain numbers.

Qu. Reported efflux ratio for Cc1cn2c(C(=O)NCc3ccc(N4CCN(c5ccc(C(F)(F)F)cn5)CC4)c(F)c3)c(C)nc2s1 : what is it?
Ans. 2.23

====

Target: CYP3A4 (Homo sapiens, UniProt P08684)
Construct: human liver microsomes were incubated with a probe substrate for each CYP isoform; from tissue; host or cells: human liver microsomes
Sequence (P08684 whole entry, canonical isoform): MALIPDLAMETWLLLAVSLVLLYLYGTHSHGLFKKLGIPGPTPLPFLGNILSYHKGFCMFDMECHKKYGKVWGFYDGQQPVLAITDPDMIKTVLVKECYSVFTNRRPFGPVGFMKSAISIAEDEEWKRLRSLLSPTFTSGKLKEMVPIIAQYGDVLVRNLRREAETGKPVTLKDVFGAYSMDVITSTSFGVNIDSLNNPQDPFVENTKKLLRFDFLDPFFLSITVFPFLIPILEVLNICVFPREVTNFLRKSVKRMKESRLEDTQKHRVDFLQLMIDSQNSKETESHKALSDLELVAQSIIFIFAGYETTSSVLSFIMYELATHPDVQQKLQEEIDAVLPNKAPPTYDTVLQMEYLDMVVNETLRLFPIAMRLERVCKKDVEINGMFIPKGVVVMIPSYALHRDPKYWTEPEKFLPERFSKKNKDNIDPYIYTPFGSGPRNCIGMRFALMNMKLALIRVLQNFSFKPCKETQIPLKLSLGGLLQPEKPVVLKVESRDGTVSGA
Test: biochemical
Type: in vitro ADME
Details: DDI assay including midazolam; read-out: Cytochrome P450 Inhibition IC50 CYP3A4 (midazolam)
measuredEndpoint: IC50

Qu. Lab note: need IC50 with CYP3A4 (Homo sapiens, UniProt P08684) for entry Cc1cn2c(C(=O)NCc3ccc(N4CCN(c5ccc(C(F)(F)F)cn5)CC4)c(F)c3)c(C)nc2s1 , please look it up.
Ans. > 20 µM

====

Target: CYP2C8 (Homo sapiens)
Construct: human liver microsomes were incubated with a probe substrate for each CYP isoform
Sequence (P10632 whole entry, canonical isoform): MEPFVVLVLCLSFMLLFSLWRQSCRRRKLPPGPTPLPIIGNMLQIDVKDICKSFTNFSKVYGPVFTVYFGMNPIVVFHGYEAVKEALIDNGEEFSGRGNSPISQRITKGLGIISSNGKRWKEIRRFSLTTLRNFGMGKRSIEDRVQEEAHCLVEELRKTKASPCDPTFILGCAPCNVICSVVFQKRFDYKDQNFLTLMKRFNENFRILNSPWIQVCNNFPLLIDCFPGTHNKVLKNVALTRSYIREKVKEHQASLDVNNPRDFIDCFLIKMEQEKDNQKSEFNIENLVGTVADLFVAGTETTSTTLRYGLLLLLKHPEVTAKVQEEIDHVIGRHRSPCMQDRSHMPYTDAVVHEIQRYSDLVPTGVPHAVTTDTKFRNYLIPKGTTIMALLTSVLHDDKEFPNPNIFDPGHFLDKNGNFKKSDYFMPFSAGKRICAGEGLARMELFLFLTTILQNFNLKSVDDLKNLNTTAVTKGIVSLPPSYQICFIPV
Experiment: biochemical
Conditions: human liver microsomes; read-out: Cytochrome P450 Inhibition IC50 CYP2C8
measuredEndpoint: IC50 (µM)
Give bare numbers, in µM.

Qu. Reported IC50 for Cc1cn2c(C(=O)NCc3ccc(N4CCN(c5ccc(C(F)(F)F)cn5)CC4)c(F)c3)c(C)nc2s1 : what is it?
Ans. 18.4

====

Biological target: CYP3A4 (Homo sapiens, UniProt P08684)
Construct: human liver microsomes were incubated with a probe substrate for each CYP isoform; from tissue; host or cells: human liver microsomes
Test: biochemical
Type: in vitro ADME
Conditions: DDI assay including tetosterone; read-out: Cytochrome P450 Inhibition IC50 CYP3A4 (tetosterone)
Method: Compounds were tested for inhibition of six cytochrome P450 enzyme isoforms—CYP2B6, CYP2C8, CYP2C9, CYP2C19, CYP2D6 and CYP3A4 [27]. For each assay, human liver microsomes were incubated with a probe substrate for each CYP isoform in the presence of compound. Compounds were prepared as a 7-point dilution series in acetonitrile:DMSO (9:1). The final DMSO content in the reaction mixture was equal in all solutions used within an assay and was < 0.2%. Samples were run in duplicate.
measuredEndpoint: IC50

Qu. Lab note: need IC50 with CYP3A4 (Homo sapiens, UniProt P08684) for entry Cc1cn2c(C(=O)NCc3ccc(N4CCN(c5ccc(C(F)(F)F)cn5)CC4)c(F)c3)c(C)nc2s1 , please look it up.
Ans. > 20 µM

====

Assay: Single dose plasma PK
Assay type: in vivo, Balb/c mice
Details: female, Balb/c, mouse, plasma; 200 mg/kg oral, without ABT
measuredEndpoint: half-life

Qu. Reported half-life for Cc1cn2c(C(=O)NCc3ccc(N4CCN(c5ccc(C(F)(F)F)cn5)CC4)c(F)c3)c(C)nc2s1 [ND-11543] : what is it?
Ans. > 24 h

====

Please respond with reported solubility for every item in the list.
Assay: physchem
Conditions: pH 6.8, aqueous buffer, kinetic from dmso stock
Numbers only, in µM.

// below: answered compounds
structure	solubility, µM
CCc1nc2sc(C)cn2c1C(=O)NCc1ccc(Oc2cccc(C(F)(F)F)c2)nc1	50
Cc1cn2c(C(=O)Nc3ccc(Oc4cccc(C(F)(F)F)c4)cc3)c(C)nc2s1	50
Cc1cn2c(C(=O)NCc3ccc(N4CCS(=O)(=O)CC4)cc3)c(C)nc2s1	200
CCc1nc2ccc(Cl)cn2c1C(=O)NCc1ccc(N2CCC(c3ccc(OC(F)(F)F)cc3)CC2)cc1	100
Cc1cn2c(C(=O)NCc3ccc(Oc4cccc(C(F)(F)F)c4)nc3)c(C)nc2s1	100

With those in mind, consider the next compound.
Qu. Reported solubility for Cc1cn2c(C(=O)NCc3ccc(Oc4cccc(C(F)(F)F)c4)cc3)c(C)nc2s1 : what is it?
Ans. 100

====

Biological target: CYP2D6 (Homo sapiens)
Construct: human liver microsomes were incubated with a probe substrate for each CYP isoform; from tissue; host or cells: human liver microsomes
Sequence (P10635 whole entry, canonical isoform): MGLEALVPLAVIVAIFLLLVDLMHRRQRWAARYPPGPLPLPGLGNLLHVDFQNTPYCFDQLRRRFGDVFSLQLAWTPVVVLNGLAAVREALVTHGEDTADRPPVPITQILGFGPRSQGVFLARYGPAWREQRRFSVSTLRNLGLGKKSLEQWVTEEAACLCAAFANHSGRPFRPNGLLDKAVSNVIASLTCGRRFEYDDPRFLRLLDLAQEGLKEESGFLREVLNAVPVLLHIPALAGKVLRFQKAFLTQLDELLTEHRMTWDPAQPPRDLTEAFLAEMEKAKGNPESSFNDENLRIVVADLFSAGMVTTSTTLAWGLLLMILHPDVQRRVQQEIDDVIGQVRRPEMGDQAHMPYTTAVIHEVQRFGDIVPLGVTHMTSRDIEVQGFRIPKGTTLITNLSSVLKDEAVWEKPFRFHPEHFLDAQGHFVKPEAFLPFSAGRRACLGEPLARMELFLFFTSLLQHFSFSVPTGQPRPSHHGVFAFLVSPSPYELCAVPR
Test: biochemical
Format: in vitro ADME
Details: human liver microsomes; read-out: Cytochrome P450 Inhibition IC50 CYP2D6
measuredEndpoint: IC50

Qu. Reported IC50 for Cc1cn2c(C(=O)NCc3ccc(N4CCN(c5ccc(C(F)(F)F)cn5)CC4)c(F)c3)c(C)nc2s1 : what is it?
Ans. > 20 µM

====

Test: in vivo
Design: species or system Balb/c mice
Settings: female, Balb/c, mouse, in vivo; mice, oral, three consecutive daily doses; read-out: Maximum Tolerated Dose, MTD
measuredEndpoint: MTD

Qu. Reported MTD for Cc1cn2c(C(=O)NCc3ccc(N4CCN(c5ccc(C(F)(F)F)cn5)CC4)c(F)c3)c(C)nc2s1 : what is it?
Ans. > 500 mg/kg

====

Assay: in vitro
Settings: human, Caco-2
measuredEndpoint: Papp A→B at 1 h
Please append the unit to your numeric answer.

Qu. Reported Papp A→B at 1 h for Cc1cn2c(C(=O)NCc3ccc(N4CCN(c5ccc(C(F)(F)F)cn5)CC4)c(F)c3)c(C)nc2s1 : what is it?
Ans. 0.376 ×10⁻⁶ cm/s

====

Assay: in vitro
Assay type: in vitro ADME
Details: human, s9; NADPH, 37°C; read-out: Human liver S9 Microsomes CL
measuredEndpoint: microsomal CLint (µL/min/mg)
Numbers only, in µL/min/mg.

Qu. Reported microsomal CLint for Cc1cn2c(C(=O)NCc3ccc(N4CCN(c5ccc(C(F)(F)F)cn5)CC4)c(F)c3)c(C)nc2s1 [ND-11543] : what is it?
Ans. 81.3

====

Target: CYP2C9 (Homo sapiens)
Construct: human liver microsomes were incubated with a probe substrate for each CYP isoform
Sequence (P11712 whole entry, canonical isoform): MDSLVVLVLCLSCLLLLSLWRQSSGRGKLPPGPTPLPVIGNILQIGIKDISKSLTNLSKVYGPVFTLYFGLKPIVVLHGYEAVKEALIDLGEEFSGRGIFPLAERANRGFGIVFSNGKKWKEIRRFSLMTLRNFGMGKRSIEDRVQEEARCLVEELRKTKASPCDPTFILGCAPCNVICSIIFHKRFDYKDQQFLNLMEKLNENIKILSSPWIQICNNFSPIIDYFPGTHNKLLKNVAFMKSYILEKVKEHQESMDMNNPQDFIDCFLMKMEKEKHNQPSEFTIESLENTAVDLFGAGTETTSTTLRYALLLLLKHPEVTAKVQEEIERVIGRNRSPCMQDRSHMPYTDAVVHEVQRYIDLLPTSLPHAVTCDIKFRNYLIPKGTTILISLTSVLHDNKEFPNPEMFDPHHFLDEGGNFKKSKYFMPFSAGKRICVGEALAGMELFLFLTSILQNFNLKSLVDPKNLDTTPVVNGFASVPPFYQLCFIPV
Experiment: biochemical
Settings: human liver microsomes; read-out: Cytochrome P450 Inhibition IC50 CYP2C9
Procedure: Compounds were tested for inhibition of six cytochrome P450 enzyme isoforms—CYP2B6, CYP2C8, CYP2C9, CYP2C19, CYP2D6 and CYP3A4 [27]. For each assay, human liver microsomes were incubated with a probe substrate for each CYP isoform in the presence of compound. Compounds were prepared as a 7-point dilution series in acetonitrile:DMSO (9:1). The final DMSO content in the reaction mixture was equal in all solutions used within an assay and was < 0.2%. Samples were run in duplicate.
measuredEndpoint: IC50 (µM)
Give bare numbers, in µM.

Qu. Reported IC50 for Cc1cn2c(C(=O)NCc3ccc(N4CCN(c5ccc(C(F)(F)F)cn5)CC4)c(F)c3)c(C)nc2s1 : what is it?
Ans. 10.2
